Target: cJun bZIP (Homo sapiens, UniProt P05412, S292Y)
Sequence (P05412 with tags, fused parts or gaps S292Y): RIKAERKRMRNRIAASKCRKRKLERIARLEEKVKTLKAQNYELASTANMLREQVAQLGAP
Experiment: CD spectra and thermal denaturation of peptide/cJun heterodimers
Settings: peptide (5 μM)/c-Jun (5 μM) heterodimer; Table 6
Values of Tm (° C.) strictly less than 60 °C map to Fulfilled, and values of at least 60 °C map to Not fulfilled.

INSERT INTO results (substance, label) VALUES
  ('Ac-LARENEELEKEAEELVVEEDVLEEEIEQLEERNYALRKEIEDLQKQLEKL-NH2 [Peptide 2]', 'Not fulfilled'),
  ('Ac-LEKEAEELVVEEDVLEEEIEQLEERNYALRKEIEDLQKQLEKL-NH2 [Peptide 3]', 'Not fulfilled'),
  ('Ac-LVVEEDVLEEEIEQLEERNYALRKEIEDLQKQLEDL-NH2 [Peptide 9]', 'Not fulfilled'),
  ('Ac-EDVLEEEIEQLEERNYALRKEIEDLQKQLEKLGAP-NH2 [Peptide 6]', 'Fulfilled'),
  ('Ac-EAEELVVEEDVLEEEIEQLEERNYALRKEIEDL-NH2 [Peptide 25]', 'Fulfilled'),
  ('Ac-LVVEEDVLEEEIEQLEERNYALRKEIEDLQKQLEKL-NH2 [Peptide 5]', 'Not fulfilled'),
  ('Ac-EAKELVDEEDVLEEEIEQLEERNYALRKEIEDLQKQ-NH2 [Peptide 14]', 'Fulfilled');
